- System: PC-3 PIP/flu tumor-bearing mice
- assay-explanation: Biodistribution studies in PC-3 PIP/flu tumor-bearing mice
- measurement-setup: 48 h p.i.; PC-3 PIP tumor
Could you label it fulfilled if measured Tumor-to-blood is 200 or higher, and not fulfilled otherwise?

For this compound, is measured Tumor-to-blood 200 or higher? O=C(O)CCC(NC(=O)NC(CCCCNC(=O)C(Cc1ccc2ccccc2c1)NC(=O)C1CCC(CNC(=O)C(CCCCNC(=O)CN2CCN(CC(=O)O)CCN(CC(=O)O)CCN(CC(=O)O)CC2)NC(=O)CC(NC(=O)CC(NC(=O)CC(NC(=O)CCCc2ccc(I)cc2)C(=O)O)C(=O)O)C(=O)O)CC1)C(=O)O)C(=O)O (centres unmarked) [^177Lu-PSMA-ALB-07, metal not drawn]
not fulfilled

Kindly determine if Tumor-to-blood recorded for O=C(O)CCC(NC(=O)NC(CCCCNC(=O)C(Cc1ccc2ccccc2c1)NC(=O)C1CCC(CNC(=O)C(CCCCNC(=O)CCCc2ccc(I)cc2)NC(=O)CN2CCN(CC(=O)O)CCN(CC(=O)O)CCN(CC(=O)O)CC2)CC1)C(=O)O)C(=O)O (centres unmarked) [^177Lu-PSMA-ALB-03, metal not drawn] is above or exactly 200.
not fulfilled

State whether the measured Tumor-to-blood reaches 200, counting equality as reaching it, for O=C([O-])CN1CCN(CC(=O)[O-])CCN(CC(=O)NCC2CCC(C(=O)N[C@@H](Cc3ccc4ccccc4c3)C(=O)NCCCC[C@H](NC(=O)N[C@@H](CCC(=O)O)C(=O)O)C(=O)O)CC2)CCN(CC(=O)[O-])CC1.[177Lu+3] (some centres unmarked) [^177Lu-PSMA-617, reference compound]
fulfilled

Check the entry O=C(O)CCC(NC(=O)NC(CCCCNC(=O)C(Cc1ccc2ccccc2c1)NC(=O)C1CCC(CNC(=O)C(CCCCNC(=O)CN2CCN(CC(=O)O)CCN(CC(=O)O)CCN(CC(=O)O)CC2)NC(=O)CCCCCCC(=O)NC(CCCCNC(=O)CCCc2ccc(I)cc2)C(=O)O)CC1)C(=O)O)C(=O)O (centres unmarked) [^177Lu-PSMA-ALB-04, metal not drawn] : does Tumor-to-blood equal or exceed 200?
not fulfilled

Test whether the compound O=C(O)CCC(NC(=O)NC(CCCCNC(=O)C(Cc1ccc2ccccc2c1)NC(=O)C1CCC(n2cc(CC(NC(=O)CN3CCN(CC(=O)O)CCN(CC(=O)O)CCN(CC(=O)O)CC3)C(=O)NC(CCCCNC(=O)CCCc3ccc(I)cc3)C(=O)O)nn2)CC1)C(=O)O)C(=O)O (centres unmarked) [^177Lu-PSMA-ALB-01, metal not drawn] records Tumor-to-blood of 200 or higher.
not fulfilled

* * *

For each record, write down the corresponding Salivary glands.
- Tested on: PC-3 PIP/flu tumor-bearing mice
- assay-explanation: Biodistribution studies in PC-3 PIP/flu tumor-bearing mice
- measurement-setup: 4 h p.i.
Quick note: give the figure in % IA/g, leave out the unit.

Entry O=C(O)CCC(NC(=O)NC(CCCCNC(=O)C(Cc1ccc2ccccc2c1)NC(=O)C1CCC(CNC(=O)C(CCCCNC(=O)CN2CCN(CC(=O)O)CCN(CC(=O)O)CCN(CC(=O)O)CC2)NC(=O)CC(NC(=O)CC(NC(=O)CC(NC(=O)CCCc2ccc(I)cc2)C(=O)O)C(=O)O)C(=O)O)CC1)C(=O)O)C(=O)O (stereo not drawn) [^177Lu-PSMA-ALB-07, metal not drawn] ; Salivary glands = 2.09

response.value for O=C(O)CCC(NC(=O)NC(CCCCNC(=O)C(Cc1ccc2ccccc2c1)NC(=O)C1CCC(CNC(=O)C(CCCCNC(=O)CN2CCN(CC(=O)O)CCN(CC(=O)O)CCN(CC(=O)O)CC2)NC(=O)CC(NC(=O)CC(NC(=O)CCCc2ccc(I)cc2)C(=O)O)C(=O)O)CC1)C(=O)O)C(=O)O (stereo not drawn) [^177Lu-PSMA-ALB-05, metal not drawn] (field: Salivary glands) = 2.75

Data point: O=C(O)CCC(NC(=O)NC(CCCCNC(=O)C(Cc1ccc2ccccc2c1)NC(=O)C1CCC(n2cc(CC(NC(=O)CN3CCN(CC(=O)O)CCN(CC(=O)O)CCN(CC(=O)O)CC3)C(=O)NC(CCCCNC(=O)CCCc3ccc(I)cc3)C(=O)O)nn2)CC1)C(=O)O)C(=O)O (stereo not drawn) [^177Lu-PSMA-ALB-01, metal not drawn] ; Salivary glands = 5.20
